- Experimental target: hUP1-R1P (Homo sapiens)
- Protocol: isothermal titration microcalorimetry (ITC), enzyme complexed with product ribose-1-phosphate
- Assay type: binding
- Experimental conditions: hUP1-R1P 50 μM
Result type: −TΔS (kcal/mol/deg)

Recorded results for 6 molecules are shown here.
Record Cc1c(CNCC(O)CO)c(O)[nH]c(=O)c1C#N (stereo not shown) [c4] : what is its −TΔS (kcal/mol/deg) with hUP1-R1P (Homo sapiens)?
14 ± 1.0 kcal/mol

Record Cc1cc(O)[nH]c(=O)c1C#N [Compound c3] : what is its −TΔS (kcal/mol/deg) with hUP1-R1P (Homo sapiens)?
22 ± 5.4 kcal/mol

Record N#Cc1ccc(O)[nH]c1=O [c12] : what is its −TΔS (kcal/mol/deg) with hUP1-R1P (Homo sapiens)?
5.7 ± 0.9 kcal/mol

Record Cc1cc(O)[nH]c(=O)c1C#N [c13] : what is its −TΔS (kcal/mol/deg) with hUP1-R1P (Homo sapiens)?
19 ± 2.9 kcal/mol

Record Cc1c(CNCCO)c(O)[nH]c(=O)c1C#N [c2] : what is its −TΔS (kcal/mol/deg) with hUP1-R1P (Homo sapiens)?
9.5 ± 1.7 kcal/mol

Record Cc1c(CN(C)C)c(O)[nH]c(=O)c1C#N [c1] : what is its −TΔS (kcal/mol/deg) with hUP1-R1P (Homo sapiens)?
14 ± 0.7 kcal/mol

---
Record Cc1c(CNC(CO)CO)c(O)[nH]c(=O)c1C#N [c6] : what is its −TΔS (kcal/mol/deg) with hUP1-R1P (Homo sapiens)?
10 ± 1.0 kcal/mol

###

hUP1 (Homo sapiens, UniProt Q16831) data, read-out pKd
Sequence (Q16831 whole entry): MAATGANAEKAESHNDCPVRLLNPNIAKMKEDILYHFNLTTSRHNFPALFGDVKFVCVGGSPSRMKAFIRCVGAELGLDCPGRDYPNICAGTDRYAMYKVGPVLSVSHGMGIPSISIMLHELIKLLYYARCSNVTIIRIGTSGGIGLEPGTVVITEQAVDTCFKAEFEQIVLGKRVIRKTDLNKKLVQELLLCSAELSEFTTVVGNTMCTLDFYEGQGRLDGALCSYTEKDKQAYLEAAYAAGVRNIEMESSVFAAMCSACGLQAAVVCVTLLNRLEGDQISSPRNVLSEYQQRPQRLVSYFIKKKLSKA
pKd here: minus log base 10 of the concentration, concentration in moles per litre.

Recorded results for 4 compounds are shown here.
Record request: pKd value, item Cc1c(CN(C)C)c(O)[nH]c(=O)c1C#N [c1]
5.38

Record request: pKd value, item N#Cc1ccc(O)[nH]c1=O [c12]
5.54

Record request: pKd value, item Cc1c(CNCC(O)CO)c(O)[nH]c(=O)c1C#N (centres unmarked) [c4]
4.70

Record request: pKd value, item O=c1[nH]c(=O)n(COCCO)cc1Cc1ccccc1 [BAU, benzil acyclo uridine, reference compound]
5.92

Next:
Record request: pKd value, item Cc1cc(O)[nH]c(=O)c1C#N [c13]
4.92

###

- Experimental target: hUP1-R1P (Homo sapiens, UniProt Q16831)
- Sequence (Q16831 whole entry): as above
- Protocol: isothermal titration microcalorimetry (ITC), enzyme complexed with product ribose-1-phosphate
- Format: binding
- Experimental conditions: hUP1-R1P 150 μM
Listed here: items and their measured ΔH°.
# unit: kcal/mol | format: bare number

Recorded results for 3 molecules are shown here.
Record request: ΔH° value, item Cc1cc(O)[nH]c(=O)c1C#N [Compound c3]
-21

Record request: ΔH° value, item N#Cc1ccc(O)[nH]c1=O
-18

Record request: ΔH° value, item Cc1cc(O)[nH]c(=O)c1C#N [c13]
-35

---
Record request: ΔH° value, item Cc1c(CN(C)C)c(O)[nH]c(=O)c1C#N
-23

###

- Experimental target: hUP1-R1P (Homo sapiens, UniProt Q16831)
- Protocol: isothermal titration microcalorimetry (ITC), enzyme complexed with product ribose-1-phosphate
- Type: binding
- Experimental conditions: hUP1-R1P 50 μM
Result type: ΔG° (kcal/mol)
# unit: kcal/mol | format: bare number

Record request: ΔG° value, item Cc1c(CNCCO)c(O)[nH]c(=O)c1C#N [c2]
-8.0

Record request: ΔG° value, item Cc1cc(O)[nH]c(=O)c1C#N [c13]
-8.1

Next:
Record request: ΔG° value, item O=c1[nH]c(=O)n(COCCO)cc1Cc1ccccc1 [BAU, benzil acyclo uridine, reference compound]
-8.2

###

- Experimental target: hUP1-R1P (Homo sapiens)
- Protocol: isothermal titration microcalorimetry (ITC), enzyme complexed with product ribose-1-phosphate
- Format: binding
- Experimental conditions: hUP1-R1P 150 μM
Result type: −TΔS (kcal/mol/deg)

Recorded results for 2 molecules are shown here.
Record request: −TΔS (kcal/mol/deg) value, item Cc1c(CNC(CO)CO)c(O)[nH]c(=O)c1C#N [c6]
3.3 ± 1.0 kcal/mol

Record request: −TΔS (kcal/mol/deg) value, item Cc1c(CNCCO)c(O)[nH]c(=O)c1C#N [c2]
23 ± 3.3 kcal/mol

---
Record request: −TΔS (kcal/mol/deg) value, item N#Cc1ccc(O)[nH]c1=O [c12]
8.5 ± 3.2 kcal/mol

###

Listed here: items and their measured ΔG°.
- Experimental target: UniProt Q16831
- Protocol: isothermal titration microcalorimetry (ITC), enzyme complexed with substrate Pi
- Assay type: binding

Recorded results for 2 compounds are shown here.
Record request: ΔG° value, item Cc1c(CN(C)C)c(O)[nH]c(=O)c1C#N
-9.1 ± 2.1 kcal/mol

Record request: ΔG° value, item Cc1c(CNCCO)c(O)[nH]c(=O)c1C#N
-9.5 ± 2.1 kcal/mol

Next:
Record request: ΔG° value, item Cc1c(CNC(CO)CO)c(O)[nH]c(=O)c1C#N
-9.0 ± 1.5 kcal/mol
